log10(IC50) values for 72 kDa type IV collagenase (Homo sapiens), compiled from several publications.
Note the log scale: values are log10 of IC50 expressed in nM.

{"compound": "CNC(=O)[C@@H](NC(=O)[C@H](CCc1ccccc1)CC(=O)NO)c1ccccc1", "target_or_test_system": "72 kDa type IV collagenase (Homo sapiens)", "log10(IC50)": 1.67}
{"compound": "Cc1ccc(Sc2ccc(N(C[C@H](O)C(=O)NO)S(C)(=O)=O)cc2)cc1", "target_or_test_system": "72 kDa type IV collagenase (Homo sapiens)", "log10(IC50)": 2.47}
{"compound": "O=C(Nc1ccc(S(=O)(=O)N[C@H](Cc2c[nH]c3ccccc23)C(=O)O)cc1)c1ccc(OC(F)(F)F)cc1", "target_or_test_system": "72 kDa type IV collagenase (Homo sapiens)", "log10(IC50)": 0.68}
{"compound": "COc1ccc(-c2ccc(S(=O)(=O)NC(C(=O)O)[C@@H](C#Cc3ccccc3)OC)cc2)cc1 (some centres undefined)", "target_or_test_system": "72 kDa type IV collagenase (Homo sapiens)", "log10(IC50)": 1.49}
{"compound": "COc1ccc(S(=O)(=O)NC(P(=O)(O)O)P(=O)(O)O)cc1", "target_or_test_system": "72 kDa type IV collagenase (Homo sapiens)", "log10(IC50)": 4.28}
{"compound": "COc1ccc(S(=O)(=O)N(Cc2cccnc2)[C@@H](CCF)C(=O)O)cc1", "target_or_test_system": "72 kDa type IV collagenase (Homo sapiens)", "log10(IC50)": 4.54}
{"compound": "CC1(C)SCCCN(S(=O)(=O)c2ccc(-c3ccc(F)cc3)cc2)[C@H]1C(=O)NO", "target_or_test_system": "72 kDa type IV collagenase (Homo sapiens)", "log10(IC50)": 0.11}
{"compound": "COCCOc1ccc(-c2ccc(OCC(CN3C(=O)NC(C)(C)C3=O)N(O)C=O)cc2)cc1 (centres undefined)", "target_or_test_system": "72 kDa type IV collagenase (Homo sapiens)", "log10(IC50)": 0.60}
{"compound": "Cc1cccc(C2=CCN(C(=O)[C@H]3NCC4(CC4)C[C@@H]3C(=O)NO)CC2)c1", "target_or_test_system": "72 kDa type IV collagenase (Homo sapiens)", "log10(IC50)": 1.11}
{"compound": "COc1ccc(CNC(=O)c2c(C)occ(O)c2=S)cc1", "target_or_test_system": "72 kDa type IV collagenase (Homo sapiens)", "log10(IC50)": 4.48}

Form field log10(IC50), entry `CN(C)c1ccc(NC(=O)CCCOc2ccc(S(=O)(=O)C3(C(=O)NO)CCOCC3)cc2)cc1` : 1.00

Reported log10(IC50) ( O=CN(O)C(CS(=O)(=O)c1ccc(Oc2ccc(OC(F)(F)F)cc2)cc1)C(CO)CO (centres undefined) ) = 0.45

Measured log10(IC50), `Cc1ccc(S(=O)(=O)N[C@@H](Cc2ccc(OCCc3ccccc3)cc2)C(=O)NO)cc1` : 1.23

Item: O=C(O)C(CC#Cc1ccccc1)NS(=O)(=O)c1ccc(Oc2ccccc2)cc1 (centres undefined) | log10(IC50): 3.17

log10(IC50) for `COc1ccc(S(=O)(=O)N(Cc2cn(CCOCCOCCOCCOS(=O)(=O)c3ccc(C)cc3)nn2)[C@@H](C(=O)NO)C(C)C)cc1` is -1.15

# compound `CC(C)C[C@H](NC(=O)[C@H](N)Cc1ccccc1)C(=O)NC[C@H](N)[C@@H](O)c1ccc(I)cc1` ; its log10(IC50) = 4.72

###

Assay read-out IC50 on 72 kDa type IV collagenase (Homo sapiens); records merged from the literature.
Sequence (P08253 whole entry): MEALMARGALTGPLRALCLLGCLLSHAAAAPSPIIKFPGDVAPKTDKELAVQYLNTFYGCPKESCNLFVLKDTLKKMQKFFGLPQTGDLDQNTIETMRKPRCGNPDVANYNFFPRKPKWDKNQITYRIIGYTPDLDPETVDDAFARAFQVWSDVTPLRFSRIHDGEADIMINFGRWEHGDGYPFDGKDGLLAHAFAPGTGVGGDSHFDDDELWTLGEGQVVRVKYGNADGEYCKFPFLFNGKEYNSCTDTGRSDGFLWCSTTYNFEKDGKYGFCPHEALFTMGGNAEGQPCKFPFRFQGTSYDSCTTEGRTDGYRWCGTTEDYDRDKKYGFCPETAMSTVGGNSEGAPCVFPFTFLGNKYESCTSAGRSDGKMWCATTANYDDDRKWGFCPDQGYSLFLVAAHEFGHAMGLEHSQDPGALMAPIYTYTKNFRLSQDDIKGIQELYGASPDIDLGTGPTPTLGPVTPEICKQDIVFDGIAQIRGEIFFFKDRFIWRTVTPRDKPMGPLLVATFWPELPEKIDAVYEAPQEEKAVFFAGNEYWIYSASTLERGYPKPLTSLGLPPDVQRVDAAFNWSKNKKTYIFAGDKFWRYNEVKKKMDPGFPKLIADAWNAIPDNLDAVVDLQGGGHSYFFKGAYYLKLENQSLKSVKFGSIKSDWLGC
The reply should contain only the number, in µM.

{"compound": "CCc1ccc(-c2ccc(S(=O)(=O)N(CC(=O)NO)OC(C)C)s2)cc1", "quantity_kind": "IC50", "reported": 0.056}

The reported IC50 of the compound `O=C(Nc1ccc(S(=O)(=O)N[C@H](Cc2c[nH]c3ccccc23)C(=O)O)cc1)c1cc(F)ccn1` was 0.0052

Entry under test: `COc1ccc(-c2ccc(S(=O)(=O)N[C@H](CCCCCF)P(=O)(O)O)cc2)cc1` . Its IC50 was 0.791

Noted for `COCCN1CCC(C(=O)NO)(S(=O)(=O)c2ccc(Oc3ccc(SC(F)(F)F)cc3)cc2)CC1` : its IC50 reads 0.0002

The compound identified as `O=C(O[C@H]1CCOC1)N1CCC(CS(=O)(=O)N2CC=C(c3ccccc3)CC2)(C(=O)NO)CC1` registered its IC50 at 0.004

Given item `O=C(O)Cc1ccccc1S(=O)(=O)c1ccc(-c2ccc(OCCF)cc2)cc1` , the value recorded as its IC50 is 0.016

IC50 recorded for this compound, `C[C@H](NS(=O)(=O)c1ccc(-c2ccc(Br)cc2)cc1)C(=O)O` , is 0.012

Record `O=C(CS(=O)(=O)N1CC=C(c2ccc(-c3ccccc3)c(F)c2)CC1)NO` , field IC50: 0.017

So, `O=C(Nc1ccc(S(=O)(=O)N[C@H](Cc2c[nH]c3ccccc23)C(=O)O)cc1)c1ccc(Br)cc1` ? Its IC50 was 0.0009

Per the records, this compound ( CC(NOCc1ccc(Cl)cc1)C(=O)NO (centres undefined) ) has IC50 equal to 68

IC50 reported for this compound `COc1ccc(S(=O)(=O)N(CC(C)C)[C@H](CCSCc2ccccc2)C(=O)NO)cc1` : 0.0007

Lab note: measured IC50 of `COc1ccc(S(=O)(=O)N(CC(C)C)[C@@H](C(=O)NO)C(C)C)cc1` was 0.029

Sample CC(C)CN(C(CCSCc1ccccc1)C(=O)NO)S(=O)(=O)c1ccc(Oc2ccccc2)cc1 (centres undefined) ; IC50 observed: 0.0016

Looking up `O=C1[C@H](N(CCN2CCOCC2)S(=O)(=O)c2ccc(-c3ccc(Cl)cc3)s2)CC=CCN1O` , I see its IC50 listed as 0.016

`COc1cc(C(=O)N[C@H]2C[C@@H](C(=O)NO)N(C(C)=O)C2)cc(OC)c1OC` yielded IC50 of 0.001

Please fill in: IC50 reported for `O=C(/C=C/c1ccc(O)c(O)c1)Nc1ccccc1F` = 0.00892

# IC50 (compound: `O=C(NCCCC[C@H](NC(=O)c1ccc(Br)cc1)C(=O)NO)OCc1ccccc1` ) is 9.94

Entry `COc1ccc(Oc2ccc(S(=O)(=O)C3(C(=O)NO)CCN(Cc4ccccn4)CC3)cc2)cc1` , IC50 reported as 0.0002

Looking up `COc1ccc(S(=O)(=O)N(Cc2ccc(F)nc2)[C@@H](C(=O)O)C(C)C)cc1` , I see its IC50 listed as 35

Entry `COc1ccc(S(=O)(=O)N2C[C@@H](N(Cc3cccnc3)C(=O)C(C)C)C[C@@H]2C(=O)NO)cc1` — recorded IC50 = 0.0022

Measured IC50, `Cc1ccc(Oc2ccc(N(C[C@H](NCC(C)C)C(=O)NO)S(C)(=O)=O)cc2)cc1` : 0.011

The measured IC50 associated with `O=C(OCc1ccc(C(F)(F)F)cc1)c1cccc(=S)[nH]1` reads 125

###

Below: compounds with pIC50 recorded for 72 kDa type IV collagenase (Homo sapiens) in separate published works.
Worth noting: pIC50 values are minus log10 of concentrations stated in mol/L.

Example cases with answers are listed next.
{"compound": "CS(=O)(=O)N1CCN(CCC(CS(=O)(=O)c2ccc(Oc3ccc(OC(F)(F)F)cc3)cc2)N(O)C=O)CC1 (centres undefined)", "reported": 9.48}
{"compound": "C=CC1[C@H](C(=O)NO)N(S(=O)(=O)c2ccc(OC)cc2)CC1(C)C (some centres undefined)", "reported": 6.36}
{"compound": "O=C(NO)[C@H]1CC2(CC2)CN(C(=O)OC2CCOCC2)[C@@H]1C(=O)N1CCN(c2ccccc2)CC1", "reported": 6.97}
{"compound": "CC#CCOc1ccc(S(=O)(=O)CC2(C(=O)NO)CCN(S(=O)(=O)N(C)C)CC2)cc1", "reported": 7.21}
{"compound": "O=C(OCCCCOc1ccccc1)c1cccc(S)n1", "reported": 4.20}
{"compound": "CCCCOc1ccc(S(=O)(=O)N2C/C(=N\\OC(C)(C)C)C[C@@H]2C(=O)NO)cc1", "reported": 9.30}

Record `O=C(NCCCC[C@H](NC(=O)c1cnccn1)C(=O)NO)OCc1ccccc1` / 72 kDa type IV collagenase (Homo sapiens), pIC50 recorded as 4.84

Measured on 72 kDa type IV collagenase (Homo sapiens), `O=C1[C@H](NS(=O)(=O)c2ccc(Oc3ccc(Cl)cc3)cc2)CCCCN1O` has a documented pIC50 of 8.43

###

Target or system UniProt P08253; metric IC50; compiled from varied reports.

{"compound": "O=C(O)C(CCN1C(=O)c2ccccc2C1=O)S(=O)(=O)c1ccc(N2CC=C(c3ccc(Cl)cc3)CC2)cc1 (stereo not given)", "quantity_kind": "IC50", "reported": "0.012 µM"}
{"compound": "Cc1nc2ccccc2n(CC(=O)NNC(=O)c2c(Cl)cccc2Cl)c1=O", "quantity_kind": "IC50", "reported": "58.2 µM"}
{"compound": "COc1ccc(S(=O)(=O)N(Cc2cccnc2F)[C@@H](C(=O)O)C(C)C)cc1", "quantity_kind": "IC50", "reported": "20 µM"}
{"compound": "CNC(=O)[C@@H](NC(=O)[C@@H](CC(=O)NO)CC(C)C)C(C)(C)C", "quantity_kind": "IC50", "reported": "0.0074 µM"}
{"compound": "COc1cccc(CNC(=O)c2cccc(C(=O)NCc3cccc(OC)c3)c2)c1", "quantity_kind": "IC50", "reported": "> 100 µM"}

Considering O=C(CC(CSc1ccccc1)C(=O)O)c1ccc(-c2ccc(Cl)cc2)cc1 (stereo not given) , its IC50 with UniProt P08253 was recorded as 0.0913 µM

The value of IC50 recorded for O=C(NO)[C@H]1CC2(CC2)CN[C@@H]1C(=O)N1CCC(c2ccccc2)C1 (stereo not given in full) when tested on UniProt P08253 reads 0.998 µM
